Reported IC50 values for the following compounds.
target: Retinoic acid receptor RXR-alpha (Homo sapiens, UniProt P19793); experiment: Displacement of [3H]-9-cis-RA from human GST-tagged N-terminal truncated RXRalpha after 1 hr by liquid scintillation counting
Sequence (P19793 whole entry, the tested form may be a part): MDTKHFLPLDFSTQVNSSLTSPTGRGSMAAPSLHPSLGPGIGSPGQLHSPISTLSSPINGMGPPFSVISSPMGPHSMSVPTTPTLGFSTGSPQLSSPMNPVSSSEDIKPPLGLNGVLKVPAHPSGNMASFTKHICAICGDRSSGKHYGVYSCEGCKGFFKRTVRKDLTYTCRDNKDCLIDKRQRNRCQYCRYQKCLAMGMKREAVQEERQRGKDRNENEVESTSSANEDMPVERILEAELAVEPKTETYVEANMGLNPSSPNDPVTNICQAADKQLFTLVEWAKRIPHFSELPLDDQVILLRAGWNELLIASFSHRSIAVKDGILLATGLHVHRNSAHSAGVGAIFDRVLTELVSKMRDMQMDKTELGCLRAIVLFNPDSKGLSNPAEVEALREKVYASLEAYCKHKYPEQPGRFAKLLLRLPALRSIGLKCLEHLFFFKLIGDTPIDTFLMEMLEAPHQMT
State the answer as a number, implicitly in µM.

Some solved entries appear below for comparison.
CC1=C(CC(=O)O)c2cc(F)ccc2/C1=C\c1cccc(C(F)(F)F)c1    8.27
CC(C)CC1=C(CC(=O)O)c2cc(F)ccc2/C1=C\c1ccc(C(C)C)cc1    3.15

Then this compound:
The value of IC50 measured for the compound CCOc1ccc2c(c1)C(CC(=O)O)=C(C)/C2=C/c1ccc(C(C)C)cc1 turned out to be 3.08
